Test system: Pseudomonas aeruginosa K-Ps102
assay.name: Minimum inhibitory concentration, serial dilution on nutrient agar
Format: cell-based
particulars: KPS102, nutrient agar, 37° C., 18 hours incubation, read-out: MIC
Measured MIC, listed per entry.
Lab book: enter the figure in µg/mL, no units written.

NCC[C@H](O)C(=O)N[C@@H]1C[C@H](N)[C@@H](O[C@H]2O[C@H](CN)CC[C@H]2N)C[C@H]1O[C@H]1O[C@H](CO)[C@@H](O)[C@H](N)[C@H]1O [AHB-trideoxyKMB] | 1.56

Exam item: Bench note: what MIC did NCC(O)C(=O)N[C@@H]1C[C@H](N)[C@@H](O[C@H]2O[C@H](CN)CC[C@H]2N)C[C@H]1O[C@H]1O[C@H](CO)[C@@H](O)[C@H](N)[C@H]1O (stereo partly shown) [AHP-trideoxyKMB] show?
Marked response: 3.13

Exam item: Now consider CNC[C@@H]1CC[C@@H](N)[C@@H](O[C@H]2C[C@@H](O[C@H]3O[C@H](CO)[C@@H](O)[C@H](N)[C@H]3O)[C@H](N)C[C@@H]2N)O1 [TrideoxyMKMB, 5,3',4'-trideoxy-6'-N-methylkanamycin B] and answer again.
Marked response: 25

Exam item: And what about the molecule NCC[C@H](O)C(=O)N[C@@H]1C[C@H](N)[C@@H](O[C@H]2O[C@H](CN)CC[C@H]2N)[C@H](O)[C@H]1O[C@H]1O[C@H](CO)[C@@H](O)[C@H](N)[C@H]1O [Habekacin, reference compound] ?
Marked response: 3.13

These data points were gathered from patent US4410516A.
